Quick list: IC50 per entry.
Target: recombinant full-length WRN protein (1-1432) (Homo sapiens)
Construct: recombinant full-length WRN protein (1-1432)
Sequence (Q14191 whole entry): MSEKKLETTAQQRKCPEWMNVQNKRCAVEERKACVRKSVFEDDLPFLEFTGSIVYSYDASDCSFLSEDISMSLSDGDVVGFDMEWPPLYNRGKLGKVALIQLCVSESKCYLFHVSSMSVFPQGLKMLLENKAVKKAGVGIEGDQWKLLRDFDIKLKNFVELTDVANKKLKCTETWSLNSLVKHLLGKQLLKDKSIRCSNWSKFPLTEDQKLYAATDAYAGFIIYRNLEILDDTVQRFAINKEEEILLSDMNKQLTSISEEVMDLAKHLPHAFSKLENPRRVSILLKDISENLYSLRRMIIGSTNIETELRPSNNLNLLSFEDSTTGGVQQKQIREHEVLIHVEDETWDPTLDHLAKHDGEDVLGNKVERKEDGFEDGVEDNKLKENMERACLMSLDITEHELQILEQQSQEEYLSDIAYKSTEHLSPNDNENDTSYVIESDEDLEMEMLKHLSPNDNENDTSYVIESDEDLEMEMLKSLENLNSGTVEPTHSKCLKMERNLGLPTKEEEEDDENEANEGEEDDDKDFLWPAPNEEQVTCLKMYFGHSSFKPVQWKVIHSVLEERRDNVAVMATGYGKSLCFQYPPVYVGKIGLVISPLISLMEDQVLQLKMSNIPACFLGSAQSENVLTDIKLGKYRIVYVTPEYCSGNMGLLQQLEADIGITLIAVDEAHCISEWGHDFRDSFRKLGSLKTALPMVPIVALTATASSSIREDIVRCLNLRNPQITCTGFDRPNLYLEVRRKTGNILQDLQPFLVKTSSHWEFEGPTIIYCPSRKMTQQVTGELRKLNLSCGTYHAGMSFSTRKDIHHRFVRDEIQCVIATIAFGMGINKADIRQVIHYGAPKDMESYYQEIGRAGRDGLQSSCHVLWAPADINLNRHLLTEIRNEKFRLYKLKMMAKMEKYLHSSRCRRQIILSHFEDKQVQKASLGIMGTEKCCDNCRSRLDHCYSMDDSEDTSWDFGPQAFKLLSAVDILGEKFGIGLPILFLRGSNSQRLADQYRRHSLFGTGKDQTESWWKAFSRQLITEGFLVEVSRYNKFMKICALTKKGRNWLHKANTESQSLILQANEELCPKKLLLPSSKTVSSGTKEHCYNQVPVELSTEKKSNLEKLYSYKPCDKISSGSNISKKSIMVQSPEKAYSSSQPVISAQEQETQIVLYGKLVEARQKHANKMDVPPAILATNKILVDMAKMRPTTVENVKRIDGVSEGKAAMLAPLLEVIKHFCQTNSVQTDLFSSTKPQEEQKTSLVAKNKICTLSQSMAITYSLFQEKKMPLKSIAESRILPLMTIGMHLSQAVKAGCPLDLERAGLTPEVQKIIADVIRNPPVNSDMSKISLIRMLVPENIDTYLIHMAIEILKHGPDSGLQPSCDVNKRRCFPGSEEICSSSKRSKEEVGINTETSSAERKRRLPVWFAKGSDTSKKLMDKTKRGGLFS
Assay: WRN unwinding activity, fluorogenic 384-well assay (Example A)
Format: biochemical
Details: WRN unwinding activity, 4 hr; Table 2; read-out: 4 hr UNW pIC50 (converted)
measurement label: IC50 (nM)

{"columns": ["compound", "observed value"],
 "data": [
  ["Cc1nc2cc(S(=O)(=O)N(C)c3ccc([C@H]4CCC[C@@H](C(=O)N[C@@H]5CCC[C@@H](C(F)(F)F)C5)[C@@H]4C(=O)O)cc3)ccc2n1C", 39800],
  ["Cc1nc2cc(S(=O)(=O)N(C)c3ccc([C@H]4CCC[C@@H](C(=O)Nc5ccc(C(C)C)cc5)[C@@H]4C(=O)O)cc3)ccc2n1C (racemic) [Example 78]", 2],
  ["Cc1nc2cc(S(=O)(=O)N(C)c3ccc([C@H]4C[C@@H](OCC5CCC5)C[C@@H](C(=O)Nc5ccc(C(F)(F)F)cc5F)[C@@H]4C(=O)O)cc3)ccc2n1C (stereo in doubt)", 3.98],
  ["Cc1nc2cc(S(=O)(=O)N(C)c3ccc([C@@H]4C[C@@H](N)C[C@H](C(=O)Nc5ccc(C(F)(F)F)cc5F)[C@H]4C(=O)O)cc3)ccc2n1C (stereo in doubt)", 63.1],
  ["O=C(O)[C@@H]1[C@@H](c2ccc(-c3cnsc3)cc2)CCC[C@H]1C(=O)Nc1ccc(C(F)(F)F)cc1F", 3.98],
  ["CN(c1ccc([C@H]2CCC[C@@H](C(=O)Nc3ccc(C(F)(F)F)cc3F)[C@@H]2C(=O)O)cc1)S(=O)(=O)c1nnc[nH]1", 0.501]
]}
